# Test system: Plasmodium berghei
# method-summary: Screen against P. berghei liver stage (PbLuc), transformed with Luciferase, at 10uM
# Type: functional, HepG2
# applied-conditions: tested at 10 uM
Among all 69,000 compounds or so, about 8,600 (12%) showed an effect of 50% or more. The full list was thinned out, with strong results kept by preference.
property-measured: INHIBITION (%)
State the answer as a number, implicitly in %.

>>> print(df.to_string())
                                   compound  value_units  measured_number
0  c1cnc2nc(N3CCCC3c3nnc4n3CCCCC4)ccc2n1 (stereo not drawn)            %             58.7
1  Cn1ccc(C(=O)NC2CCC23CCN(Cc2cnn(C)c2)CC3)c1 (stereo not drawn)            %            -28.7

Entry CC(C)CCN1C[C@H]2CCN(C(=O)NC3CCCC3)CC[C@H]2S1(=O)=O : reported INHIBITION = ?
37.1

Field request: INHIBITION | item: Cc1n[nH]c(C)c1NC(=O)CCc1cccc(C2CCCN(C)C2)n1 (stereo not drawn)
29.3

Param item = CCOc1cncc(N2CCCC2c2nnc3n2CCCCC3)n1 (stereo not drawn) ; retrieve measured INHIBITION.
24.2

Reported INHIBITION for CC(C)(C)OC(=O)N1CC(=O)N(CCc2ccccc2)CC(O)C1 (stereo not drawn) : what is it?
9.36

Sample Cc1oncc1C(=O)NCc1cc(=O)n2c(n1)CN(C)CCC2 — what was its INHIBITION?
16.5

For the compound CCN(Cc1ccc2c(c1)OCO2)C(=O)c1cccnc1O , what INHIBITION is on record?
-35.5

Recorded INHIBITION for CSCC(C)(O)CNS(=O)(=O)c1ccc(Br)cc1 (stereo not drawn) , please?
-23.5

I am curious: what INHIBITION value has been reported for CN(Cc1ncc(-c2ccccc2C(=O)O)s1)c1ncccn1 ?
12

Bench note: what INHIBITION did CC(c1cccc(S(N)(=O)=O)c1)N(C)CCOc1ccccc1 (stereo not drawn) show?
22.3

Entry CO[C@H]1CN(C(=O)OC(C)(C)C)CC1NCc1ccco1 (stereo partly drawn) : reported INHIBITION = ?
74
